A collection of compounds and their measured Standard Reduction Potential E^0 in Volts vs. the standard hydrogen electrode (SHE)
Assay: Half-cell cyclic voltammetry of quinones, E^0 (Example 13)
Assay type: physicochemical
Conditions: 1 mM in 1 M sulfuric acid, pH 0, glassy carbon, 25 mV/s
Protocol: 1 mM solutions of the quinones listed in the following table were prepared in 1 M sulfuric acid solution. The pH of the solutions was 0. Half-cell electrochemical data were recorded using a working electrode consisting of a flat 3 mm diameter disk of glassy carbon, a coiled platinum wire as a counter electrode, and a Ag/AgCl reference electrode. Cyclic voltammograms were recorded using sweep rates of 25 mV/s.
Numeric only. Scale: Volts

O=C1c2ccccc2C(=O)c2c(O)c(S(=O)(=O)O)cc(O)c21; 0.094
O=C1C=C(S(=O)(=O)O)C(=O)c2ccccc21; 0.356
O=C1c2ccc(S(=O)(=O)O)cc2C(=O)c2ccc(S(=O)(=O)O)cc21; 0.212
O=C1C=C(S(=O)(=O)O)c2ccccc2C1=O; 0.423
O=C1c2ccc(S(=O)(=O)O)c(O)c2C(=O)c2ccc(S(=O)(=O)O)c(O)c21; 0.116

# query: Standard Reduction Potential E^0 in Volts vs. the standard hydrogen electrode (SHE) of entry O=C1c2ccccc2C(=O)c2cc(CS(=O)(=O)O)c(CS(=O)(=O)O)cc21 0.114

# query: Standard Reduction Potential E^0 in Volts vs. the standard hydrogen electrode (SHE) of entry O=C1c2ccccc2C(=O)c2cc(S(=O)(=O)O)ccc21 0.171

# query: Standard Reduction Potential E^0 in Volts vs. the standard hydrogen electrode (SHE) of entry O=C1c2cccc(S(=O)(=O)O)c2C(=O)c2c1cccc2S(=O)(=O)O 0.182

# query: Standard Reduction Potential E^0 in Volts vs. the standard hydrogen electrode (SHE) of entry O=C1c2cccc(S(=O)(=O)O)c2C(=O)c2cccc(S(=O)(=O)O)c21 0.223
